Recorded values, source patent US10738035B2.

- assay_overview: Compound toxicity, ATPLite (CC50)
- experimental_conditions: human, HepAD38 cells
// values below are reported CC50 at 3 days

Worked cases, answers included:
# molecule, CC50 at 3 days
rows = [
    ("Cn1nc(NC(=O)N2CCC(O)CC2)cc1C(=O)Nc1ccc(F)c(C(F)(F)F)c1", "> 30 µM"),
    ("Cn1nc(NC(=O)N2CCC(F)CC2)cc1C(=O)Nc1cc(F)c(F)c(F)c1", "< 10 µM"),
    ("Cc1cc(NC(=O)c2cc(NC(=O)N3CCC(O)CC3)nn2C)ccc1F", "< 10 µM"),
    ("CN(C(=O)Nc1cc(C(=O)Nc2cc(F)c(F)c(F)c2)n(C)n1)C1CCCCC1", "> 30 µM"),
    ("Cn1cc(NC(=O)N2CCC(O)CC2)nc1C(=O)Nc1cc(F)c(F)c(F)c1", "> 30 µM"),
    ("Cn1nc(NS(=O)(=O)N2CCC(OCc3ccccc3)CC2)cc1C(=O)Nc1cc(F)c(F)c(F)c1", "10 to 30 µM"),
    ("Cn1nc(NC(=O)N2CCC(O)CC2)cc1C(=O)Nc1ccc(-c2ccccc2)cc1", "> 30 µM"),
    ("Cn1nc(NC(=O)Nc2cc(F)c(F)c(F)c2)cc1S(=O)(=O)N1CCC(O)CC1", "> 30 µM"),
    ("CN(C(=O)N1CCC(O)CC1)c1cc(C(=O)Nc2cc(F)c(F)c(F)c2)n(C)n1", "> 30 µM"),
    ("O=C(Nc1cc(F)c(F)c(F)c1)c1ccc(Cl)c(NS(=O)(=O)N2CCC(O)CC2)c1", "> 30 µM"),
]

Briefly, CC50 at 3 days measured for O=S(=O)(c1c(Cl)ccc2c(Nc3cc(F)c(F)c(F)c3)n[nH]c12)N1CCC(O)CC1 : > 30 µM

The molecule listed as Cn1nc(NS(=O)(=O)C2CCC(O)CC2)cc1C(=O)Nc1cc(F)c(F)c(F)c1 (stereo not shown) has a reported CC50 at 3 days of > 30 µM

// sample Cn1nc(C(=O)Nc2cc(F)c(F)c(F)c2)cc1NC(=O)N1CCC(O)CC1 , its CC50 at 3 days was > 10 µM

Looking up Cn1nc(NC(=O)N2CCC(C)(O)CC2)cc1C(=O)Nc1cc(F)c(F)c(F)c1 , I see its CC50 at 3 days listed as > 30 µM

---

- assay_overview: Compound toxicity, ATPLite (CC50)
- experimental_conditions: human, HepAD38 cells
CC50 at 3 days listing for selected compounds.

Study these solved cases before continuing.
# compound, reported
records = [
    ("O=S(=O)(c1cc2oc(Nc3cc(F)c(F)c(F)c3)nc2cc1Cl)N1CCC(O)CC1", "< 10 µM"),
    ("CCc1ccc(NC(=O)c2cc(NC(=O)N3CCC(O)CC3)nn2C)cc1", "> 30 µM"),
    ("Cn1nc(NC(=O)C2CCC(O)CC2)cc1C(=O)Nc1cc(F)c(F)c(F)c1 (centres unmarked)", "> 30 µM"),
    ("COC(=O)c1ccc(NC(=O)c2cc(NC(=O)N3CCC(O)CC3)nn2C)cc1", "> 30 µM"),
]

The recorded CC50 at 3 days for entry Cn1nc(NC(=O)N2CCC(O)CC2)cc1C(=O)Nc1ccc(O)cc1 equals > 30 µM

---

- assay_overview: Compound toxicity, ATPLite (CC50)
- experimental_conditions: human, HepAD38 cells
readout_kind: CC50 at 3 days

Data point: CC(C)CN(C)C(=O)Nc1cc(C(=O)Nc2cc(F)c(F)c(F)c2)n(C)n1 ; CC50 at 3 days = > 30 µM

Entry Cn1c(NC(=O)N2CCC(O)CC2)cnc1C(=O)Nc1cc(F)c(F)c(F)c1 — recorded CC50 at 3 days = > 10 µM

Query CC(C)N(C)C(=O)Nc1cc(C(=O)Nc2cc(F)c(F)c(F)c2)n(C)n1 yields CC50 at 3 days of < 10 µM

Looking up Cn1nc(NC(=O)N2CCC(O)CC2)cc1C(=O)Nc1ccc(Cl)c(F)c1 , I found its CC50 at 3 days recorded as > 30 µM

---

- assay_overview: Compound toxicity, ATPLite (CC50)
- experimental_conditions: human, HepAD38 cells
readout_kind: CC50 at 3 days

Before answering, review these 3 worked examples.
# test_smiles, CC50 at 3 days
records = [
    ("CC(C)c1ccc(NC(=O)c2cc(NC(=O)N3CCC(O)CC3)nn2C)cc1", "> 30 µM"),
    ("Cn1nc(NC(=O)N2CCC(O)CC2)cc1C(=O)Nc1ccc(F)c(F)c1", "> 30 µM"),
    ("Cn1nc(NC(=O)N2CCC(O)CC2)cc1C(=O)Nc1ccc(F)cc1Cl", "> 30 µM"),
]

Lab book: CC50 at 3 days of CN(C)CCNC(=O)Nc1cc(C(=O)Nc2cc(F)c(F)c(F)c2)n(C)n1 noted as > 30 µM

The molecule Cn1nc(NC(=O)N2CCC(O)CC2)cc1C(=O)Nc1ccc(O)c(F)c1 showed CC50 at 3 days equal to > 30 µM

# molecule Cn1nc(NC(=O)N2CCC(O)CC2)cc1C(=O)Nc1cccc(F)c1 ; its CC50 at 3 days = > 30 µM

Lab book: CC50 at 3 days of Cn1nc(NC(=O)N2CCC(O)CC2)cc1C(=O)Nc1ccc(C(C)(C)C)cc1 noted as > 30 µM

Value of CC50 at 3 days reported for the molecule COc1cc(NC(=O)c2cc(NC(=O)N3CCC(O)CC3)nn2C)ccc1F is > 30 µM

# CC50 at 3 days of Cn1nc(NC(=O)N2CCC(O)CC2)cc1C(=O)Nc1ccc(F)c(O)c1 = > 30 µM

Given item CCCCNC(=O)Nc1cc(C(=O)Nc2cc(F)c(F)c(F)c2)n(C)n1 , the value recorded as its CC50 at 3 days is > 30 µM

Entry Cn1nc(NC(=O)N2CCC(O)CC2)cc1C(=O)Nc1ccc(C(=O)O)cc1 , CC50 at 3 days reported as > 30 µM

Form field CC50 at 3 days, entry Cn1nc(NC(=O)NCC2(C)CC2)cc1C(=O)Nc1cc(F)c(F)c(F)c1 : > 30 µM

response.value for CN(CCO)C(=O)Nc1cc(C(=O)Nc2cc(F)c(F)c(F)c2)n(C)n1 (field: CC50 at 3 days) = > 30 µM

// field: CC50 at 3 days; key: CCCN(C)C(=O)Nc1cc(C(=O)Nc2cc(F)c(F)c(F)c2)n(C)n1 ; value = > 30 µM

---

- assay_overview: Compound toxicity, ATPLite (CC50)
- experimental_conditions: human, HepAD38 cells
As shown below, each of these molecules has a reported CC50 at 3 days value.

Recorded results for 5 molecules are shown here.
# molecule, CC50 at 3 days
rows = [
    ("Cn1nc(NC(=O)N2CCC(O)CC2)cc1C(=O)Nc1ccc(F)c(C#N)c1", "> 30 µM"),
    ("Cn1nc(NC(=O)NCCS(C)(=O)=O)cc1C(=O)Nc1cc(F)c(F)c(F)c1", "> 30 µM"),
    ("Cn1nc(NC(=O)N2CCC(O)CC2)cc1-c1ncc(-c2cc(F)c(F)c(F)c2)[nH]1", "> 10 µM"),
    ("Cn1nc(NC(=O)N2CCC(O)CC2)cc1C(=O)Nc1cccc(F)c1F", "> 30 µM"),
    ("CC(C)c1cccc(NC(=O)c2cc(NC(=O)N3CCC(O)CC3)nn2C)c1", "> 10 µM"),
]

Field CC50 at 3 days (entry Cn1nc(NC(=O)N2CCC(O)CC2)cc1C(=O)Nc1ccccc1 ) reads > 30 µM

The value of CC50 at 3 days measured for the molecule Cn1nc(NC(=O)N(CCO)CCO)cc1C(=O)Nc1cc(F)c(F)c(F)c1 turned out to be > 30 µM

---

- assay_overview: Compound toxicity, ATPLite (CC50)
- experimental_conditions: human, HepAD38 cells
readout_kind: CC50 at 3 days

# test_smiles, CC50 at 3 days
records = [
    ("Cn1nc(NC(=O)N2CCCCC2)cc1C(=O)Nc1cc(F)c(F)c(F)c1", "< 10 µM"),
    ("Cn1nc(NC(=O)N2CCC(O)CC2)cc1C(=O)Nc1cc(F)c(F)c(Cl)c1", "< 10 µM"),
]

Memo: C=CCn1nc(NC(=O)N2CCC(O)CC2)cc1C(=O)Nc1cc(F)c(F)c(F)c1 , reported CC50 at 3 days: > 30 µM

The recorded CC50 at 3 days for entry Cn1nc(NC(=O)N2CCC(O)CC2)cc1C(=O)Nc1ccc(F)cc1F equals > 30 µM

Record Cn1nc(NC(=O)OCCO)cc1C(=O)Nc1cc(F)c(F)c(F)c1 , field CC50 at 3 days: > 30 µM

Query Cn1nc(NC(=O)N2CCC(O)CC2)cc1C(=O)Nc1ccc(F)c(Cl)c1 yields CC50 at 3 days of < 10 µM
